Hello, the source for this data is patent US7550469B2, in case you need it.

system-tested: cloned human dopamine D3 receptors (Homo sapiens, UniProt P35462)
Construct: expressed in transfected cells; membrane homogenate
Sequence (P35462 whole entry): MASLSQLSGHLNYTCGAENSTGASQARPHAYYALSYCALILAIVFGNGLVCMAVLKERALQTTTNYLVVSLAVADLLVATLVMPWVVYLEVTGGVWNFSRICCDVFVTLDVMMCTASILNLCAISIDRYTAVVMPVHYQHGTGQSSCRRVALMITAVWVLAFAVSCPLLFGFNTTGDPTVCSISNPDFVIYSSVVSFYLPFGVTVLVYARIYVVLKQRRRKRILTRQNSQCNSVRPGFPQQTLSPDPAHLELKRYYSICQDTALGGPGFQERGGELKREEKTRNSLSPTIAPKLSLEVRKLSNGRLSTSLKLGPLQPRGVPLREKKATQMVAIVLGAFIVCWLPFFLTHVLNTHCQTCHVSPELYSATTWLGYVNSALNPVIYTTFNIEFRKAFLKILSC
procedure-summary: [N-Methyl-3H]Spiroperidol binding to cloned human dopamine D3 receptors (Protocol 1)
measurement-parameters: Table 2; read-out: D3K1
pKi: −log10 of the molar value.
measurement-label: pKi

| molecule | system-tested | pKi |
| --- | --- | --- |
| O=C(NCC(CO)CCN1CCN(c2csc3cc(C(F)(F)F)ccc23)CC1)c1cccs1 (stereo not shown) [818926ES] | cloned human dopamine D3 receptors (Homo sapiens, UniProt P35462) | 6.69 |

(1) O=C(NCCC(CO)CN1CCN(c2csc3cc(C(F)(F)F)ccc23)CC1)c1ccc2ccccc2c1 (stereo not shown) [818619ES]
(2) CCOc1cccc2cc(C(=O)NCCCCN3CCCN(c4csc5cc(F)ccc45)CC3)oc12 [compound 827133]
Field: lower recorded pKi (choose 1 or 2 ) Respond with the label that goes with your answer.
1
